- study system: T1, recombinant human TGF-β RII/Fc chimera protein (human, UniProt P37173 24-159)
- T1 construct: range 24-159; Made in HEK-F cells; Biotinylated where it was put on SA chips, otherwise captured by anti-human IgG; also called human TGFbRII/Fc; hRII-Fc; not shown: Fc region of human IgG1
- T1 sequence (P37173 24-159 limits assumed, change not shown): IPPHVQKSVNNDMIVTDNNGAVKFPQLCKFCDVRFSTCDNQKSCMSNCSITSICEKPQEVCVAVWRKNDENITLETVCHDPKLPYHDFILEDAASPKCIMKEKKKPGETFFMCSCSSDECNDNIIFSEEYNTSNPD
- assay info: SPR Biacore T200, receptor-Fc captured by anti-human IgG, dAb as analyte, 1:1 model
measurement kind: koff (s⁻¹)
Report as a plain number; the unit s⁻¹ is understood.

Below: 3 binders and their reported koff.
binder	koff (s⁻¹)
DOM23h-439-42 (DOM23h-439-25 + C-terminal Alanine + 61N) (VHH, human VH dAb) VHH: EVQLLESGGGLVQPGGSLRLSCAASGFTFGTEQMWWVRQAPGKGLEFVSRIDSPGGRTYYANSVKGRFTISRDNSKNTLYLQMNSLRAEDTAVYYCAKRRPTGVSGTFYDYWGQGTLVTVSS	0.000131
DOM23h-439-25 (VHH, expressed from pC10) VHH: EVQLLESGGGLVQPGGSLRLSCAASGFTFGTEQMWWVRQAPGKGLEFVSRIDSPGGRTYYADSVKGRFTISRDNSKNTLYLQMNSLRAEDTAVYYCAKRRPTGVSGTFYDYWGQGTLVTVSS	0.000634
DOM23h-439-41 (DOM23h-439-25 + C-terminal Alanine + 48I) (VHH, human VH dAb) VHH: EVQLLESGGGLVQPGGSLRLSCAASGFTFGTEQMWWVRQAPGKGLEFISRIDSPGGRTYYADSVKGRFTISRDNSKNTLYLQMNSLRAEDTAVYYCAKRRPTGVSGTFYDYWGQGTLVTVSS	0.000187

Noted for DOM23h-439-44 (DOM23h-439-25 + C-terminal Alanine + 61N64R) (VHH, human VH dAb) VHH: EVQLLESGGGLVQPGGSLRLSCAASGFTFGTEQMWWVRQAPGKGLEFVSRIDSPGGRTYYANSVRGRFTISRDNSKNTLYLQMNSLRAEDTAVYYCAKRRPTGVSGTFYDYWGQGTLVTVSS : its koff reads 6.91e-05
